Assay Target: ENPP-1, MDA-MB-231 cells (Homo sapiens)
Measurement Notes: cell-based
Condition Info: MDA-MB-231, read-out: % Inhibition (at 20 μM)
Measured Property: inhibition at 20 µM (%)

[[record]]
molecule = "COc1ccc2c(ncc3[nH]c(=O)n(Cc4c(F)cc(S(N)(=O)=O)c(F)c4F)c32)n1 [Compound 112]"
unit_of_measure = "%"
result_number = 80

[[record]]
molecule = "COc1ccc2c(ncc3[nH]c(=O)n(Cc4c(F)cc(B(O)O)cc4F)c32)n1 [Compound 111]"
unit_of_measure = "%"
result_number = 80

[[record]]
molecule = "COc1ccc2c(ncc3nc(C4CC4)n(Cc4ccc(S(N)(=O)=O)cn4)c32)n1 [Compound 74]"
unit_of_measure = "%"
result_number = 81


---

Assay Target: human soluble ENPP1 (Homo sapiens)
Construct: 20 ng of human soluble ENPP1
Sequence (P22413 103-925 limits assumed): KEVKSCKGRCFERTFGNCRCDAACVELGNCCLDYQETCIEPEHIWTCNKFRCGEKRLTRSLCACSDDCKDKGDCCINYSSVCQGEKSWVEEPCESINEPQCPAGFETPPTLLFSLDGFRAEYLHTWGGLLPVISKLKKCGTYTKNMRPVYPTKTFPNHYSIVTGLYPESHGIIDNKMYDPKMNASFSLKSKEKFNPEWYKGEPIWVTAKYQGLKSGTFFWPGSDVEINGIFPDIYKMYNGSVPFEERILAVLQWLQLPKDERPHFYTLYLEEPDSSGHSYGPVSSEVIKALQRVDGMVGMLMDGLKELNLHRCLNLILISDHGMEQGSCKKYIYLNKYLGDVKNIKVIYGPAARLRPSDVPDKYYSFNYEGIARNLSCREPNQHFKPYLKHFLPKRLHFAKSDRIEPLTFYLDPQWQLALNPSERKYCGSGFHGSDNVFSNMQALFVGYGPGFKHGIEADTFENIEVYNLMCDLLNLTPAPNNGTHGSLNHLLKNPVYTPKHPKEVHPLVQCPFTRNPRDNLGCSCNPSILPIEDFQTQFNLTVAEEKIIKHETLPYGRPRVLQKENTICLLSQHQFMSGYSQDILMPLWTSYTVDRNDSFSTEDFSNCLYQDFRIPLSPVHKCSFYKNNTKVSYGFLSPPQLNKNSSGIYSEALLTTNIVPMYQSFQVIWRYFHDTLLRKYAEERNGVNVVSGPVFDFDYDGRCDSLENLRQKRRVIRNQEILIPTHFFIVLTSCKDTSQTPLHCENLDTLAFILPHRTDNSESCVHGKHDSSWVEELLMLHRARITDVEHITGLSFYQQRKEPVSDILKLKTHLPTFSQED
Measurement Notes: ENPP1 activity assay using p-Nitrophenyl-5′-AMP as a substrate
Assay type: biochemical
Measured Property: IC50 (nM)

[[record]]
compound_structure = "COc1ccc2c(ncc3[nH]c(=O)n(Cc4ccc(S(N)(=O)=O)c(F)c4F)c32)n1"
measured_property = "IC50"
result_number = 4.6

[[record]]
compound_structure = "COc1cc2ncc3[nH]c(=O)n(Cc4ccc(S(N)(=O)=O)cc4)c3c2cc1OC"
measured_property = "IC50"
result_number = 5.9

[[record]]
compound_structure = "COc1ccc2c(ncc3nc(C4CNC4)n(Cc4ccc(S(N)(=O)=O)c(F)c4)c32)n1"
measured_property = "IC50"
result_number = 5.2

[[record]]
compound_structure = "COc1ccc2c(ncc3nc(C)n(Cc4ccc(S(N)(=O)=O)cc4)c32)n1"
measured_property = "IC50"
result_number = 0.44

[[record]]
compound_structure = "COc1ccc2c(ncc3ncn(Cc4ccc(S(N)(=O)=O)cn4)c32)n1"
measured_property = "IC50"
result_number = 0.23


A: COc1ccc2c(ncc3nc(CC#N)n(Cc4ccc(S(N)(=O)=O)c(F)c4)c32)n1
B: COc1ccc2c(ncc3[nH]c(=O)n(Cc4c(F)cc(NS(N)(=O)=O)cc4F)c32)n1
C: COc1ccc2c(n1)nc(C)c1[nH]c(=O)n(Cc3c(F)cc(S(N)(=O)=O)cc3F)c12
D: COc1ccc2c(ncc3ncn(Cc4ccc(S(N)(=O)=O)c(OC)c4)c32)n1
Task for the reader: rank each entry by its IC50, from the minimum upward. The labels, placed in the requested order, form the answer.
A, C, D, B

---

Measurement Notes: Pharmacokinetics in mice
Assay type: in vivo
Condition Info: mouse, plasma; male CD-1 mice; 1 mg/kg, iv
Measured Property: half-life (min)

Past entries and their recorded results:
[[record]]
compound_structure = "COc1ccc2c(ncc3nc(C)n(Cc4ccc(S(N)(=O)=O)cc4)c32)n1"
measured_property = "half-life"
result_number = 19.8

[[record]]
compound_structure = "COc1ccc2c(ncc3ncn(Cc4ccc(S(N)(=O)=O)cn4)c32)n1"
measured_property = "half-life"
result_number = 162

[[record]]
compound_structure = "COc1cc2ncc3ncn(Cc4ccc(S(N)(=O)=O)cn4)c3c2cc1OC"
measured_property = "half-life"
result_number = 15


A: COc1ccc2c(ncc3nnn(Cc4ccc(S(N)(=O)=O)c(F)c4)c32)n1
B: COc1ccc2c(ncc3nc(CN4CCOCC4)n(Cc4ccc(S(N)(=O)=O)c(F)c4)c32)n1
// returns A or B , whichever has the lower half-life To answer, give the label that identifies your chosen option.
B

---

Assay Target: ENPP-1, MDA-MB-231 cells (Homo sapiens)
Sequence (P22413 1-925): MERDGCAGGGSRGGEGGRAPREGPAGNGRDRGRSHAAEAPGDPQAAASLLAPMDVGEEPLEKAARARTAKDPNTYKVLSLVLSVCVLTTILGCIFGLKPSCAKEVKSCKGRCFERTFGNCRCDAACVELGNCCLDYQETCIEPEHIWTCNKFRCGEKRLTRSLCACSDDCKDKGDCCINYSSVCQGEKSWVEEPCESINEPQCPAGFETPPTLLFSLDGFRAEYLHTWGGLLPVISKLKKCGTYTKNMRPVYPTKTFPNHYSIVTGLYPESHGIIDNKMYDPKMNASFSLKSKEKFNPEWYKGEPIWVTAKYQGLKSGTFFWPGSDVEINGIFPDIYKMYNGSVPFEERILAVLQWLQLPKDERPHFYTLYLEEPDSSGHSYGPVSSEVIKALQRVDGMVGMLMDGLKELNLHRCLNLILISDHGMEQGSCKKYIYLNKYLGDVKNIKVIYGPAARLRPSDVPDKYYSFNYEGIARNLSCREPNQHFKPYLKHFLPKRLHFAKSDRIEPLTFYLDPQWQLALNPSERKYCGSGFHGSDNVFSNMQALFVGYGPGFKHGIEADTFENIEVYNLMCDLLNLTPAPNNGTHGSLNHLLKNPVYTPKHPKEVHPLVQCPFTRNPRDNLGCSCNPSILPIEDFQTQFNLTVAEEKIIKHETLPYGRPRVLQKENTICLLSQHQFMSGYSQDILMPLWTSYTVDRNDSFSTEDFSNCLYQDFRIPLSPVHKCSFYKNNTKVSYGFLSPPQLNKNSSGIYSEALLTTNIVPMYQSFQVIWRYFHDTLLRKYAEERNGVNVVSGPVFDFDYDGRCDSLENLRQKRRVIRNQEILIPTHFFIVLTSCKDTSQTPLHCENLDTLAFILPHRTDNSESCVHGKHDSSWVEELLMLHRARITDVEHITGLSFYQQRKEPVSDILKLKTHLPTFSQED
Measured Property: IC50 (nM)

[[record]]
compound = "COc1cc2ncc3ncn([C@H](C)c4ccc(S(N)(=O)=O)cc4)c3c2cc1OC [Compound 11a]"
assay_target = "ENPP-1, MDA-MB-231 cells (Homo sapiens)"
result_number = 600

[[record]]
compound = "COc1ccc2c(c1)ncc1[nH]c(=O)n(Cc3ccc(S(N)(=O)=O)cc3)c12"
assay_target = "ENPP-1, MDA-MB-231 cells (Homo sapiens)"
result_number = 1500


a: COc1ccc2c(ncc3nc(C)n(Cc4ccc(S(N)(=O)=O)c(F)c4)c32)n1
b: COc1ccc2c(ncc3nc(CN4CCOCC4)n(Cc4ccc(S(N)(=O)=O)c(F)c4)c32)n1
Which of the two items, a and b , has the greater recorded IC50? To answer, give the label that identifies your chosen option.
b

---

Assay Target: human soluble ENPP1 (Homo sapiens, UniProt P22413)
Construct: 20 ng of human soluble ENPP1
Measurement Notes: ENPP1 activity assay using p-Nitrophenyl-5′-AMP as a substrate
Assay type: biochemical
Measured Property: IC50 (nM)

[[record]]
compound_structure = "COc1cc2ncc3ncn(Cc4ccc(S(N)(=O)=O)cn4)c3c2cc1OC"
assay_target = "human soluble ENPP1 (Homo sapiens, UniProt P22413)"
result_number = 3.9


P: COc1ccc2c(ncc3[nH]c(=O)n(Cc4ccc(S(N)(=O)=O)cc4F)c32)n1
Q: COc1ccc2c(ncc3cnn(Cc4ccc(S(N)(=O)=O)cc4)c32)n1
R: COc1ccc2c(n1)nc(C)c1ncn(Cc3ccc(S(N)(=O)=O)c(F)c3)c12
Task for the reader: rank each entry by its IC50, from the minimum upward. The labels, placed in the requested order, form the answer.
P, Q, R
(P: 0.74 nM, Q: 1.8 nM, R: 12 nM)
